- assaySystem: MAD28 (UniProt Q9TTA5)
- Sequence (Q9TTA5 whole entry, looked up): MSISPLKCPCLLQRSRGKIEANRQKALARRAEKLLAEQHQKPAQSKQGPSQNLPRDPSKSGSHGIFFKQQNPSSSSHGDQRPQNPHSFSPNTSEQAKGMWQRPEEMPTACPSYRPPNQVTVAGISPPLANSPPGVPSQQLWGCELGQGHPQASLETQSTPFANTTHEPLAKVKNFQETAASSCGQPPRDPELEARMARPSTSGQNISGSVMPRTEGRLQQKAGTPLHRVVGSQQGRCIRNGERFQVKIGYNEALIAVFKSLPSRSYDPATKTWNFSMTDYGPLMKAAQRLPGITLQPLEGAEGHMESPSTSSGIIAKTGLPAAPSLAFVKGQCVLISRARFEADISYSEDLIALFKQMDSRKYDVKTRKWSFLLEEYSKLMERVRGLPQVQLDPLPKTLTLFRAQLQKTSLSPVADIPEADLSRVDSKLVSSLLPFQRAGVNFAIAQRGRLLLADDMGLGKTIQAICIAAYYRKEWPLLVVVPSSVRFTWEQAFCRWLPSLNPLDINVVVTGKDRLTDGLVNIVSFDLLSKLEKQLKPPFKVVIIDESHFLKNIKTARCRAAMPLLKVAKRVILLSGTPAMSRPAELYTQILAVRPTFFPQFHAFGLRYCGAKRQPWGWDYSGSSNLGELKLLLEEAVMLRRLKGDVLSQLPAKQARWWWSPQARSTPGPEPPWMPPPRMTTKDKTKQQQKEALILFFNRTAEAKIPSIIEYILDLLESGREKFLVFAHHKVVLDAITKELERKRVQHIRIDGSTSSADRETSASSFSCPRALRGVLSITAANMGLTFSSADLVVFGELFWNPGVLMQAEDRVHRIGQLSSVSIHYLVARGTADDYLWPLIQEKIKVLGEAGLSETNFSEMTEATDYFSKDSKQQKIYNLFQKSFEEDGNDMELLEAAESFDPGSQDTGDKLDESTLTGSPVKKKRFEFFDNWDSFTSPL
- experimentSummary: intrinsic tryptophan fluorescence quenching
- experimentalConditions: Fluorescence at 25 C (Cary-Varian spectrofluorimeter); buffer, salt and pH not given (as in ref 13)
measuredEndpoint: pKd
The scale used: pKd is minus the common logarithm of the concentration in molar units.

Query block: Lab note: need pKd with MAD28 (UniProt Q9TTA5) for entry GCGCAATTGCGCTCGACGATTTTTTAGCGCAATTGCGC [slDNA (stem-loop DNA)] , please look it up.
Result block: 7.66

====

- assaySystem: His-ADAAD (Active DNA-dependent ATPase A Domain) (UniProt Q9TTA5)
- Sequence (Q9TTA5 whole entry, looked up): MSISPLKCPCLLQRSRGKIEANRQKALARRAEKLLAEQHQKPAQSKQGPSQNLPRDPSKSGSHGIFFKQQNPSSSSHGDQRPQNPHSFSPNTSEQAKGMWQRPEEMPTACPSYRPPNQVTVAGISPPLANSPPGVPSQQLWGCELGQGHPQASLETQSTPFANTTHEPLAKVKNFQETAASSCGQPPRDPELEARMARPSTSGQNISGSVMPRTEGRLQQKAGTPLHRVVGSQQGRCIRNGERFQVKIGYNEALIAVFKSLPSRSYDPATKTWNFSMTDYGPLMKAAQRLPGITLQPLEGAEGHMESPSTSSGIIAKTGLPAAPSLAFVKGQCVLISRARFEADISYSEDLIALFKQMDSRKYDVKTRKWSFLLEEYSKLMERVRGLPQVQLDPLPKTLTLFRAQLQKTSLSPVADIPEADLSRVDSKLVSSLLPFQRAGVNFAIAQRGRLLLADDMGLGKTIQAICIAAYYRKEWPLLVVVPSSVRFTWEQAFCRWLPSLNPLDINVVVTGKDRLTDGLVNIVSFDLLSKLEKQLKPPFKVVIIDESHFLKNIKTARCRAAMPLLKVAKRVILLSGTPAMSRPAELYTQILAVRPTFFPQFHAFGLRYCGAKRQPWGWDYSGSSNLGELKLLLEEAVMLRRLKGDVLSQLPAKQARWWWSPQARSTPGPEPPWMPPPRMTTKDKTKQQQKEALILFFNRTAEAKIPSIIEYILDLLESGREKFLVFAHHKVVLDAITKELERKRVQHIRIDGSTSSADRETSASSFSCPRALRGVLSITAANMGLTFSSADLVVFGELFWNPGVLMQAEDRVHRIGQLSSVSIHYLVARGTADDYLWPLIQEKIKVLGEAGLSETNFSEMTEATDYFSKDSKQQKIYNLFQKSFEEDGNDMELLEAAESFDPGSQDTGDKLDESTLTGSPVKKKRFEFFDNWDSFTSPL
- experimentSummary: intrinsic tryptophan fluorescence quenching
- experimentalConditions: 2 uM ADAADiN (saturating inhibitor); Fluorescence at 25 C (Cary-Varian spectrofluorimeter); buffer, salt and pH not given (as in ref 13)
measuredEndpoint: pKd
Please report pKd as the negative decimal logarithm of the molar concentration, giving only the number.

Query block: So what pKd did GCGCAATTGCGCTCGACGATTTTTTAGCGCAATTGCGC [slDNA (stem-loop DNA)] get with His-ADAAD (Active DNA-dependent ATPase A Domain) (UniProt Q9TTA5)?
Result block: 9.20
